Just for reference, ChEMBL document CHEMBL4428125 is where these values come from.

Could you please report measured pKi for the items listed next?
Biological target: Adenosine receptor A3 (Homo sapiens, UniProt P0DMS8)
Sequence (P0DMS8 whole entry): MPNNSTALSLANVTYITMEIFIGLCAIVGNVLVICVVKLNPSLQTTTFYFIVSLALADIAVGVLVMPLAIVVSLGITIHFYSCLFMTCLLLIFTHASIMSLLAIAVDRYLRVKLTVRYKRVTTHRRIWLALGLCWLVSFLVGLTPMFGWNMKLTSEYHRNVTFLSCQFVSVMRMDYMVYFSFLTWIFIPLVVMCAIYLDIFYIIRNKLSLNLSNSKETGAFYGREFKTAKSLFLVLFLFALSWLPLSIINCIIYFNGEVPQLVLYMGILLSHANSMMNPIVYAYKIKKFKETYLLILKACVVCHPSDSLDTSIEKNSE
pKi: −log10 of the molar value.

# input Please look at this molecule and report its pKi: "Cn1c(=O)c2c(nc3n2CCN(CC#Cc2ccc(Cl)c(Cl)c2)C3)n(C)c1=O"
# output < 5.00

# input Please look at this molecule and report its pKi: "Cn1c(=O)c2c(nc3n2CCN(Cc2ccc(Cl)c(Cl)c2)C3)n(C)c1=O"
# output < 6.00

# input Please look at this molecule and report its pKi: "Cn1c(=O)c2c(nc3n2CCN(CCc2ccc(Cl)cc2C(F)(F)F)C3)n(C)c1=O"
# output < 5.00

# input Please look at this molecule and report its pKi: "COc1ccc(CCN2CCn3c(nc4c3c(=O)n(C)c(=O)n4C)C2)cc1OC"
# output < 5.00

# input Please look at this molecule and report its pKi: "Cn1c(=O)c2c(nc3n2CCN(c2ccc(F)cc2)C3)n(C)c1=O"
# output < 5.00

# input Please look at this molecule and report its pKi: "Cn1c(=O)c2c(nc3n2CCN(CCc2cccc(Cl)c2)C3)n(C)c1=O"
# output < 5.00
